kinase still bound, per cent of control by entry:
# system-under-test: MAP2K5 (human)
# test: KINOMEscan competition binding
# measurement-conditions: compound 10.0 µM
Write the number in % without appending the unit.

# return recorded kinase still bound, per cent of control for input C=CC(=O)Nc1cccc(Nc2nc(N[C@H]3CC[C@H](N(C)C)CC3)nc3c2ncn3C(C)C)c1
59

# return recorded kinase still bound, per cent of control for input Cc1ccc(NC(=O)c2cccc(C(C)(C)C#N)c2)cc1Nc1ccc2ncn(C)c(=O)c2c1
0.7

# return recorded kinase still bound, per cent of control for input O=C(NC1CC1)c1cccc(-c2ccc3c(NC(=O)C4CC4)n[nH]c3c2)c1
5

# return recorded kinase still bound, per cent of control for input Nc1ccc(-c2ccc3ncc4ccc(=O)n(-c5cccc(C(F)(F)F)c5)c4c3c2)cn1
84

# return recorded kinase still bound, per cent of control for input C[C@@H](Oc1cc(-n2cnc3ccc(CN4CCN(C)CC4)cc32)sc1C(N)=O)c1ccccc1C(F)(F)F
43

# return recorded kinase still bound, per cent of control for input CCN1CCN(Cc2ccc(Nc3ncc4c(n3)N(C)c3ccccc3C(=O)N4C)cc2C(F)(F)F)CC1
35

# return recorded kinase still bound, per cent of control for input Cc1cc([C@@H](C)Nc2ccccc2C(=O)O)c2nc(N3CCOCC3)cc(=O)n2c1
100

# return recorded kinase still bound, per cent of control for input N#Cc1c(NC(=O)c2cccc3ccccc23)sc2c1CCCC2
100

# return recorded kinase still bound, per cent of control for input Cc1ccc2nc(NCCN)c3ncc(C)n3c2c1
96

###

# system-under-test: PTK2B (human)
# test: KINOMEscan competition binding
# measurement-conditions: compound 10.0 µM
Doc: threshold 20% (exclusive). Items with kinase still bound, per cent of control beneath it return TRUE; others return FALSE.

| compound | system-under-test | label-value |
| --- | --- | --- |
| CN(C)C/C=C/C(=O)Nc1cccc(Nc2ncc3c(n2)N(C)c2ccccc2C(=O)N3C)c1 | PTK2B (human) | FALSE |

is_below(kinase still bound, per cent of control, 20%) for Nc1ccc(-c2ccc3ncc4ccc(=O)n(-c5cccc(C(F)(F)F)c5)c4c3c2)cn1 ?
FALSE

is_below(kinase still bound, per cent of control, 20%) for COc1cc(C(=O)NC2CCN(C)CC2)ccc1Nc1ncc2c(n1)N(C1CCCC1)C(C)CC(=O)N2C (stereo not given) ?
TRUE

is_below(kinase still bound, per cent of control, 20%) for CCN1CCN(Cc2ccc(Nc3ncc4c(n3)N(C)c3ccccc3C(=O)N4C)cc2C(F)(F)F)CC1 ?
FALSE

is_below(kinase still bound, per cent of control, 20%) for C=CC(=O)Nc1cccc(Oc2nc(Nc3ccc(N4CCN(C)CC4)cc3OC)ncc2Cl)c1 ?
FALSE

###

# system-under-test: IRAK4 (human) (UniProt Q9NWZ3)
# Sequence (Q9NWZ3 whole entry, looked up): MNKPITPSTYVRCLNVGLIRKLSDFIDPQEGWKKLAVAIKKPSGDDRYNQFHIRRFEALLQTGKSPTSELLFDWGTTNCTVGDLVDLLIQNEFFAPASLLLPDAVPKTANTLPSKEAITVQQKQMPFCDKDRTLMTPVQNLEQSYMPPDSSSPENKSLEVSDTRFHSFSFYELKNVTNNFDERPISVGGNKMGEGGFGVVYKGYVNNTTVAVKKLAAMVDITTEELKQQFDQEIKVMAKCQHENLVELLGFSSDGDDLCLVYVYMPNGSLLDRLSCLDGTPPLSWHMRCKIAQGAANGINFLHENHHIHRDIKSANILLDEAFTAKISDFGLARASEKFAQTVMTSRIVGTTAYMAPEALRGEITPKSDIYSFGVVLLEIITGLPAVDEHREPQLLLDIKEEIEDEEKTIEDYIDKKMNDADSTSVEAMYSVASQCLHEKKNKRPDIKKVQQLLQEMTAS
# test: KINOMEscan competition binding
# measurement-conditions: compound 10.0 µM
Doc: threshold 90% (exclusive). Items with kinase still bound, per cent of control beneath it return yes (1); others return no (0).

| entry-smiles | system-under-test | label-value |
| --- | --- | --- |
| C=CC(=O)Nc1cc(NC(=O)c2ccc(C)c(NC(=O)c3ccno3)c2)cc(C(F)(F)F)c1 | IRAK4 (human) (UniProt Q9NWZ3) | no (0) |
| Nc1ccc(-c2ccc3ncc4ccc(=O)n(-c5cccc(C(F)(F)F)c5)c4c3c2)cn1 | IRAK4 (human) (UniProt Q9NWZ3) | yes (1) |
| CCOc1cc2ncc(C#N)c(Nc3ccc(OCc4ccccn4)c(Cl)c3)c2cc1NC(=O)/C=C/CN(C)C | IRAK4 (human) (UniProt Q9NWZ3) | no (0) |
| Cc1ccc2nc(NCCN)c3ncc(C)n3c2c1 | IRAK4 (human) (UniProt Q9NWZ3) | no (0) |
| O=C(NOC[C@H](O)CO)c1ccc(F)c(F)c1Nc1ccc(I)cc1F | IRAK4 (human) (UniProt Q9NWZ3) | no (0) |
| CCCS(=O)(=O)Nc1ccc(F)c(C(=O)c2c[nH]c3ncc(-c4ccc(Cl)cc4)cc23)c1F | IRAK4 (human) (UniProt Q9NWZ3) | yes (1) |
| Cc1ccc(NC(=O)c2cccc(C(C)(C)C#N)c2)cc1Nc1ccc2ncn(C)c(=O)c2c1 | IRAK4 (human) (UniProt Q9NWZ3) | yes (1) |

Now examine the next entry.
is_below(kinase still bound, per cent of control, 90%) for C=CC(=O)Nc1cccc(Nc2nc(N[C@H]3CC[C@H](N(C)C)CC3)nc3c2ncn3C(C)C)c1 ?
yes (1)

###

kinase still bound, per cent of control by entry:
# system-under-test: UniProtKB P53667
# Sequence (P53667 whole entry, looked up): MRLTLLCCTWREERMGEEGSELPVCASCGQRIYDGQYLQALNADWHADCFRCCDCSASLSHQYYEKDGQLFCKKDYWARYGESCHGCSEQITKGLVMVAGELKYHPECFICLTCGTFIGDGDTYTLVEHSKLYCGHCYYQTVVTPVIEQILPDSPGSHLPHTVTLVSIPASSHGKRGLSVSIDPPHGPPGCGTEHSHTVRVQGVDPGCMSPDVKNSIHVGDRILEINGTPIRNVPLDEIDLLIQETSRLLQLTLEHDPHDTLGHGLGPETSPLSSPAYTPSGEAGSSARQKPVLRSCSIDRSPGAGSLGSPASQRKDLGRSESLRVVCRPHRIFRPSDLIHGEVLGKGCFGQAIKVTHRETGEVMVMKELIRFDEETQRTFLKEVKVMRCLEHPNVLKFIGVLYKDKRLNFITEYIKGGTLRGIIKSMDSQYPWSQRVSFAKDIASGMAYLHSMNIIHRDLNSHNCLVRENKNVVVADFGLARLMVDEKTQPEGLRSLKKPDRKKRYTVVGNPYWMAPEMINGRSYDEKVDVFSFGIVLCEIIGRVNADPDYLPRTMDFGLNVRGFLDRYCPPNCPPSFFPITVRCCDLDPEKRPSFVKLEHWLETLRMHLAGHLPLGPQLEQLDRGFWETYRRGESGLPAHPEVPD
# test: KINOMEscan competition binding
# measurement-conditions: compound 10.0 µM
Report the figure along with its unit, number first.

Recorded results for 5 compounds are shown here.
| compound | kinase still bound, per cent of control |
| --- | --- |
| COc1cc(C(=O)NC2CCN(C)CC2)ccc1Nc1ncc2c(n1)N(C1CCCC1)C(C)CC(=O)N2C (centres undefined) | 100% |
| N#Cc1c(NC(=O)c2cccc3ccccc23)sc2c1CCCC2 | 76% |
| C=CC(=O)Nc1cccc(Nc2nc(N[C@H]3CC[C@H](N(C)C)CC3)nc3c2ncn3C(C)C)c1 | 100% |
| COc1cc(C(=O)NC2CCN(C)CC2)ccc1Nc1ncc2c(n1)N(C1CCCC1)CCC(=O)N2C(C)C | 100% |
| C=CC(=O)Nc1cccc(Oc2nc(Nc3ccc(N4CCN(C)CC4)cc3OC)ncc2Cl)c1 | 100% |

# return recorded kinase still bound, per cent of control for input O=C(NOC[C@H](O)CO)c1ccc(F)c(F)c1Nc1ccc(I)cc1F
68%

# return recorded kinase still bound, per cent of control for input CCC(=O)N1CCN(c2ccc(-n3c(=O)ccc4cnc5ccc(-c6cnc7ccccc7c6)cc5c43)cc2C(F)(F)F)CC1
15%

# return recorded kinase still bound, per cent of control for input O=C(NC1CC1)c1cccc(-c2ccc3c(NC(=O)C4CC4)n[nH]c3c2)c1
100%

# return recorded kinase still bound, per cent of control for input CCCS(=O)(=O)Nc1ccc(F)c(C(=O)c2c[nH]c3ncc(-c4ccc(Cl)cc4)cc23)c1F
27%

###

# system-under-test: RPS6KA4 KD2 (human) (UniProt O75676)
# Sequence (O75676 whole entry, looked up): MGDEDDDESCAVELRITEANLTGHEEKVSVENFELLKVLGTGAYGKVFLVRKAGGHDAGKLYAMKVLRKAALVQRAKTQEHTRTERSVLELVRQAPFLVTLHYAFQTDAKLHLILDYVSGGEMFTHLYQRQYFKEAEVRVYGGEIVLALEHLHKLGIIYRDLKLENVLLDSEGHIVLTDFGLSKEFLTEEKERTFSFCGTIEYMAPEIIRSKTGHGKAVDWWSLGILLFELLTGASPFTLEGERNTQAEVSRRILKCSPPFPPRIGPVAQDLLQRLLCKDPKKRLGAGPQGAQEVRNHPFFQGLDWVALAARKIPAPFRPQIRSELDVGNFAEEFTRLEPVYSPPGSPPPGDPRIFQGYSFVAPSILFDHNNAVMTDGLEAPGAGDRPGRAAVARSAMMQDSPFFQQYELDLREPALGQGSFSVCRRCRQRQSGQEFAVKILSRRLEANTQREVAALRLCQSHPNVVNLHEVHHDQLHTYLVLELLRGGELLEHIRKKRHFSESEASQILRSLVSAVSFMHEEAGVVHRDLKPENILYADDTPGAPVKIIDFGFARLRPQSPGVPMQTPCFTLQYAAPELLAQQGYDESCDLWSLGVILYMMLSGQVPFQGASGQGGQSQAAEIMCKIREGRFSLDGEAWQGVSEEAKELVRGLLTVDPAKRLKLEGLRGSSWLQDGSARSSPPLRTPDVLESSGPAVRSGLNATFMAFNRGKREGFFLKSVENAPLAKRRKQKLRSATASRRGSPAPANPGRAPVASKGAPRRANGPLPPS
# test: KINOMEscan competition binding
# measurement-conditions: compound 10.0 µM
endpoint: kinase still bound, per cent of control (%)
Write the number in % without appending the unit.

# return recorded kinase still bound, per cent of control for input OCCCNc1cc(-c2ccnc(Nc3cccc(Cl)c3)n2)ccn1
100

# return recorded kinase still bound, per cent of control for input O=C(NOC[C@H](O)CO)c1ccc(F)c(F)c1Nc1ccc(I)cc1F
100

# return recorded kinase still bound, per cent of control for input Nc1ccc(-c2ccc3ncc4ccc(=O)n(-c5cccc(C(F)(F)F)c5)c4c3c2)cn1
100

###

# system-under-test: RPS6KA6 KD2 (human)
# test: KINOMEscan competition binding
# measurement-conditions: compound 10.0 µM
endpoint: kinase still bound, per cent of control (%)
Write the number in % without appending the unit.

Recorded results for 2 compounds are shown here.
| compound | unit-annotation | kinase still bound, per cent of control |
| --- | --- | --- |
| Nc1ccc(-c2ccc3ncc4ccc(=O)n(-c5cccc(C(F)(F)F)c5)c4c3c2)cn1 | % | 70 |
| Cc1ccc(C(=O)Nc2cccc(C(F)(F)F)c2)cc1Nc1cncc(C(N)=O)c1 | % | 100 |

# return recorded kinase still bound, per cent of control for input O=C1Nc2ccc(I)cc2/C1=C/c1cc(Br)c(O)c(Br)c1
1.7

# return recorded kinase still bound, per cent of control for input Cn1c(=O)n(-c2ccc(C(C)(C)C#N)cc2)c2c3cc(-c4cnc5ccccc5c4)ccc3ncc21
100

# return recorded kinase still bound, per cent of control for input C=CC(=O)Nc1cccc(Nc2nc(N[C@H]3CC[C@H](N(C)C)CC3)nc3c2ncn3C(C)C)c1
100

# return recorded kinase still bound, per cent of control for input C=CC(=O)Nc1cccc(Oc2nc(Nc3ccc(N4CCN(C)CC4)cc3OC)ncc2Cl)c1
27

# return recorded kinase still bound, per cent of control for input O=C(NOC[C@H](O)CO)c1ccc(F)c(F)c1Nc1ccc(I)cc1F
80

# return recorded kinase still bound, per cent of control for input Cc1ccc(NC(=O)c2cccc(C(C)(C)C#N)c2)cc1Nc1ccc2ncn(C)c(=O)c2c1
3.5

# return recorded kinase still bound, per cent of control for input Cc1cc([C@@H](C)Nc2ccccc2C(=O)O)c2nc(N3CCOCC3)cc(=O)n2c1
100

# return recorded kinase still bound, per cent of control for input COc1cc(C(=O)NC2CCN(C)CC2)ccc1Nc1ncc2c(n1)N(C1CCCC1)CCC(=O)N2C(C)C
100

# return recorded kinase still bound, per cent of control for input O=C(NC1CC1)c1cccc(-c2ccc3c(NC(=O)C4CC4)n[nH]c3c2)c1
60

###

kinase still bound, per cent of control by entry:
# system-under-test: FLT1 (human) (UniProt P17948)
# Sequence (P17948 whole entry, looked up): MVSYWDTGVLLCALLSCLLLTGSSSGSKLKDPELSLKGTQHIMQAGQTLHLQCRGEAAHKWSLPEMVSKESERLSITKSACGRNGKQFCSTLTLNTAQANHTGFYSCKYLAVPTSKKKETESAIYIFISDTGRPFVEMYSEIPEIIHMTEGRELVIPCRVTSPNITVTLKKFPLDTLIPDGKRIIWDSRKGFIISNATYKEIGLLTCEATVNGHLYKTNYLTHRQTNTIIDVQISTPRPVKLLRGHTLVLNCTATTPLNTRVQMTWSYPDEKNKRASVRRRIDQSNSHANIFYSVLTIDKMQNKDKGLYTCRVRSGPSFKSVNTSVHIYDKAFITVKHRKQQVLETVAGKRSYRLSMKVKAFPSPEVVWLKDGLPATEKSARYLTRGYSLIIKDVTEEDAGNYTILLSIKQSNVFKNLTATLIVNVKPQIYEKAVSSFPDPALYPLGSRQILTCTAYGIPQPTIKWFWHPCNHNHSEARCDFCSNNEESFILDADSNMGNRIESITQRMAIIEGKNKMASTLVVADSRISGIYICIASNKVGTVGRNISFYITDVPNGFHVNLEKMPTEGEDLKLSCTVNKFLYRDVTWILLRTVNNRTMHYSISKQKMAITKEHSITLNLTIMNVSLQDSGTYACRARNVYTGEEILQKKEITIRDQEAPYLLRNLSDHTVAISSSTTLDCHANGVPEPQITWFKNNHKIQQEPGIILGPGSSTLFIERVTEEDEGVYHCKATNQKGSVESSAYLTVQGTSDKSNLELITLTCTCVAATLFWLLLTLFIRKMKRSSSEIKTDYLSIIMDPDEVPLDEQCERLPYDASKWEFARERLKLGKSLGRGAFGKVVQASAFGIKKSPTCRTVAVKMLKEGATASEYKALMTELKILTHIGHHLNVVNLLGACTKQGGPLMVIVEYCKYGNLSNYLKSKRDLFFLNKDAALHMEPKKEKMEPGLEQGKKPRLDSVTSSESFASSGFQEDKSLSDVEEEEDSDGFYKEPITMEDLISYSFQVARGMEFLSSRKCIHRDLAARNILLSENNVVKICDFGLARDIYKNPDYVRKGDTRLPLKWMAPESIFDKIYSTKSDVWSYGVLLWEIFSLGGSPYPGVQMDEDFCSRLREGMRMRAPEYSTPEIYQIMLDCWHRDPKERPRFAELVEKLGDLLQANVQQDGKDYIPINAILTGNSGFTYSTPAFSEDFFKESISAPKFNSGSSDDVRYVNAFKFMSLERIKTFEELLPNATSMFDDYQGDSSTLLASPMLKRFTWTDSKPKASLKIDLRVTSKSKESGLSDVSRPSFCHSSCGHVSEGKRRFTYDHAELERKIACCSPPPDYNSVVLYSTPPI
# test: KINOMEscan competition binding
# measurement-conditions: compound 10.0 µM

Recorded results for 6 molecules are shown here.
| entry-smiles | system-under-test | endpoint | observed-result |
| --- | --- | --- | --- |
| O=C(NOC[C@H](O)CO)c1ccc(F)c(F)c1Nc1ccc(I)cc1F | FLT1 (human) (UniProt P17948) | kinase still bound, per cent of control | 94% |
| OCCCNc1cc(-c2ccnc(Nc3cccc(Cl)c3)n2)ccn1 | FLT1 (human) (UniProt P17948) | kinase still bound, per cent of control | 100% |
| N#Cc1c(NC(=O)c2cccc3ccccc23)sc2c1CCCC2 | FLT1 (human) (UniProt P17948) | kinase still bound, per cent of control | 87% |
| CCC(=O)N1CCN(c2ccc(-n3c(=O)ccc4cnc5ccc(-c6cnc7ccccc7c6)cc5c43)cc2C(F)(F)F)CC1 | FLT1 (human) (UniProt P17948) | kinase still bound, per cent of control | 79% |
| O=C1Nc2ccc(I)cc2/C1=C/c1cc(Br)c(O)c(Br)c1 | FLT1 (human) (UniProt P17948) | kinase still bound, per cent of control | 100% |
| CCCS(=O)(=O)Nc1ccc(F)c(C(=O)c2c[nH]c3ncc(-c4ccc(Cl)cc4)cc23)c1F | FLT1 (human) (UniProt P17948) | kinase still bound, per cent of control | 43% |

Next molecule, kinase still bound, per cent of control to be filled in.
# return recorded kinase still bound, per cent of control for input CCOc1cc2ncc(C#N)c(Nc3ccc(OCc4ccccn4)c(Cl)c3)c2cc1NC(=O)/C=C/CN(C)C
95%
